Target: T1, soluble hFKN-SEAP (extracellular region of human fractalkine conjugated to secreted alkaline phosphatase) (UniProt P78423 25-341)
T1 chain: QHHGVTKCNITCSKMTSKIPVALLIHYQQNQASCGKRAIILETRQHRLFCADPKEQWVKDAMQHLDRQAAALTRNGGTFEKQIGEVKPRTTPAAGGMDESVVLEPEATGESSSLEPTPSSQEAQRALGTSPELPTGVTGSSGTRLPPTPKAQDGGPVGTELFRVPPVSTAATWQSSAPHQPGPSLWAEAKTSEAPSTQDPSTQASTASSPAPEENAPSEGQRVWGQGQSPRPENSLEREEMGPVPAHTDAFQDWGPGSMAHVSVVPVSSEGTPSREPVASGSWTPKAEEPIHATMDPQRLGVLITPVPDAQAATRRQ
Assay: BIACORE
Form field: Kd (one value per entry).
The answer is to be given in pM; state only the numeric part.

* mouse-human chimeric 3A5-2 mAb (antibody, V domains shown) VH: QVQLQQSGPELVKPGASVKMSCKASGYTFTNYYIHWVKQRPGQGLEWIGWIYPGDGSPKFNERFKGKTTLTADKSSNTAYMLLSSLTSEDSAIYFCATGPTDGDYFDYWGQGTTLTVSS VL: DIQMTQSPASLSASVGETVTITCRASGNIHNFLAWYQQKQGKSPQFLVYNEKTLADGVPSRFSGSGSGTQYSLKINSLQPEDFGIYFCQQFWSTPYTFGGGTKLEIK | 7.13

Lab note: next binder to report on.
Which Kd is listed for humanized anti-hFKN mAb H3-2L2-IgG2 (antibody, V domains shown) VH: QVQLVQSGAEVKKPGASVKVSCKASGYTFTNYYIHWVKQAPGQGLEWIGWIYPGDGSPKFNERFKGRTTLTADKSTNTAYMLLSSLRSEDTAVYFCATGPTDGDYFDYWGQGTTVTVSS VL: DIQMTQSPSSLSASVGDRVTITCRASGNIHNFLAWYQQKPGKAPKFLVYNEKTLADGVPSRFSGSGSGTQYTLTISSLQPEDFATYFCQQFWSTPYTFGGGTKVEIK ?
5.92
